System: DMS-273
Assay: NCI tumour cell line growth inhibition, 48 h
Calls of active or inactive are those of the source. Cut-off read from the data, not from the text of the source: active = GI50 up to about 1.1 µM and inactive = higher.
Lab note: assign the record to one of active, inactive

Some solved entries appear below for comparison.
compound	target_or_test_system	group
Nc1ncnc2c1ncn2C1OC(CO)C(O)C1O (stereo not given)	DMS-273	inactive
CSc1ccc2c(cc1=O)C(NC(=O)c1ccccc1)CCc1cc(O)c(O)c(O)c1-2 (stereo not given)	DMS-273	inactive
CC1=CCN(c2ccccn2)OC1c1ccccc1 (stereo not given)	DMS-273	inactive

Q: # lookup: test call for O=[N+]([O-])c1cccc2nc3ccccc3c(NCCO)c12
Result: active

Q: Try CC1/C=C/[C@@]2(C)CCC(C(C)(C)O)C2C(O)C[C@](C)(O)/C=C/C1 (stereo not given in full) next.
Result: inactive

Q: Try CC(C)N(C(C)C)P(OCCC#N)OC1CC(n2cnc3c(=O)[nH]cnc32)OC1COC(=O)NCCCCCCNC(=O)OC(C)(C)c1ccc(-c2ccccc2)cc1 (stereo not given) next.
Result: inactive

Q: Try CCOC(=O)C1C(=O)c2cccc(OC)c2C2COC(=O)N12 (stereo not given) next.
Result: inactive

====

Test system: DU-145
Experiment: NCI tumour cell line growth inhibition, 48 h
The source made the active and inactive calls. No stated cut-off is given here; in the data, active = GI50 up to about 1.1 µM and inactive = higher.
I'd appreciate it if you could supply GI50 values for the items below.

// known answers, use as guide
molecule	GI50
COc1cc(-c2cc(=O)c3cc4c(=O)cc(-c5cc(OC)c(OC)c(OC)c5)oc4cc3o2)cc(OC)c1OC	35.7 µM (inactive)
CCN(CC)C(=O)CCNC(C)Cc1c[nH]c2ccccc12 (stereo unspecified)	> 100 µM (inactive)
COc1ccc(-c2nc(O)c3ccccc3n2)cc1OC	> 100 µM (inactive)
Cc1cc(-c2nc3cc(F)ccc3s2)ccc1NC(=O)C(C)N (stereo unspecified)	4.42 µM (inactive)
C=CC[C@]1(C2=NC(C)(C)CO2)c2ccccc2-c2ccccc2[C@H]1C(C)=O	14.4 µM (inactive)

# context switch: different molecule, same GI50
Q: Given Oc1ccc(C(O)(c2ccccc2)c2ccccc2)c2ccccc12 , state its recorded GI50.
Result: 2.13 µM (inactive)

====

Test system: 786-0
Experiment: NCI tumour cell line growth inhibition, 48 h
Active and inactive are the calls of the source. No stated cut-off is given here; in the data, active = GI50 up to about 1.1 µM and inactive = higher.
measure: GI50

// known answers, use as guide
compound	result
NC(CSC(c1ccccc1)(c1ccccc1)c1ccccc1)C(=O)O (stereo not given)	0.971 µM (active)
CC1(O)CC23CC(O)C4(O)C(CC(O)C4(C)C)C(C)(O)C2CCC1C3O (stereo not given)	> 100 µM (inactive)
CCN(CC)/N=C\c1c2ccccc2cc2ccccc12	44.2 µM (inactive)
CN(C)CCN1C(=O)c2cccc3cc([N+](=O)[O-])cc(c23)C1=O [MITONAFIDE]	0.195 µM (active)

# context switch: different compound, same GI50
Q: Given CC(C)N(C(C)C)P(OCCC#N)OC1CC(n2cnc3c(=O)[nH]cnc32)OC1COC(=O)NCCCCCCNC(=O)OC(C)(C)c1ccc(-c2ccccc2)cc1 (stereo not given) , state its recorded GI50.
Result: 23 µM (inactive)

====

I'd appreciate it if you could supply GI50 values for the items below.
System: MDA-N
Assay: NCI tumour cell line growth inhibition, 48 h
Active and inactive are the calls of the source. Cut-off read from the data, not from the text of the source: active = GI50 up to about 1.1 µM and inactive = higher.

// known answers, use as guide
molecule	target_or_test_system	GI50
C1CNCCNCCN1	MDA-N	> 100 µM (inactive)
[N-]=[N+]=NC1=C(C(=O)c2ccccc2)C(=O)c2cccc3cccc1c23	MDA-N	64.3 µM (inactive)
O=C1c2c(O)cccc2C(C(=O)CCCC(=O)C2c3cccc(O)c3C(=O)c3c(O)cccc32)c2cccc(O)c21	MDA-N	0.442 µM (active)
C[C@]12C=CC(=O)C=C1CC[C@@H]1[C@@H]2CC[C@@]2(C)[C@H]1CC[C@]2(O)C(N)=O	MDA-N	> 100 µM (inactive)
COC(=O)C(CCCCN)NC(=O)C(CCCCN)NC(C)=O.Cc1ccc(C(=O)Nc2ccc(S(=O)(=O)O)c3cc(S(=O)(=O)O)cc(S(=O)(=O)O)c23)cc1NC(=O)c1cccc(NC(=O)Nc2cccc(C(=O)Nc3cc(C(=O)Nc4ccc(S(=O)(=O)O)c5cc(S(=O)(=O)O)cc(S(=O)(=O)O)c45)ccc3C)c2)c1	MDA-N	> 50 µM (inactive)
COc1cc(C)cc2c1c(=O)c1ccccc1n2C	MDA-N	19 µM (inactive)
O=C(O)CC(Nc1ccccc1)C(=O)O (configuration not stated)	MDA-N	> 100 µM (inactive)
O=C(CCSC1=NCCCN1)c1ccc(F)cc1	MDA-N	17.3 µM (inactive)
CN1CCc2ccccc2C1Cc1ccccc1NC(=O)c1sc2ccccc2c1Cl (configuration not stated)	MDA-N	> 100 µM (inactive)
Cn1c(NN)nc(-c2ccc([N+](=O)[O-])cc2)c(C#N)c1=O	MDA-N	12.4 µM (inactive)

Give GI50 for each listed item.
1. O=C1/C(=C/c2ccc3c(c2)CCC3)Cc2cc3c(cc21)CCC3
2. CC(C)(C)c1cc(COc2cc(COc3ccc(-c4c5c(nc6c4CCc4ccc(-c7c8ccccc8nc8ccccc78)cc4-6)-c4cc(-c6c7ccccc7nc7ccccc67)ccc4CC5)cc3)cc(OCc3cc(C(C)(C)C)cc(C(C)(C)C)c3)c2)cc(C(C)(C)C)c1
3. O=C(/C=C/c1ccc([N+](=O)[O-])cc1)c1nc2ccccc2[nH]1
4. O=[As](O)(O)c1ccc(NCc2ccccc2)cc1
5. CCCCOc1ccc(S(=O)(=O)/N=C(\NN)Nc2ccc(Cl)cc2)cc1

Result:
["> 100 µM (inactive)", "> 100 µM (inactive)", "72.1 µM (inactive)", "> 100 µM (inactive)", "32.3 µM (inactive)"]

// data source = ChEMBL document CHEMBL1201862
